# particulars: Liquid; Visual observation in an unstirred cell
parameter: Critical temperature (K)

[[record]]
compound = "FC(F)C(F)(F)F [pentafluoroethane]"
readout_number = 339.2

[[record]]
compound = "COC(F)(F)C(F)(F)F [methyl pentafluoroethyl ether]"
readout_number = 406.82

[[record]]
compound = "FC(F)C(F)C(F)(F)F (stereo not given) [1,1,1,2,3,3-hexafluoropropane]"
readout_number = 412.41

[[record]]
compound = "FC(C(F)(F)F)C(F)(F)F [1,1,1,2,3,3,3-heptafluoropropane]"
readout_number = 375

[[record]]
compound = "FCC(F)(F)F [1,1,1,2-tetrafluoroethane]"
readout_number = 374.13


* * *

# particulars: Liquid; Direct measurement
parameter: Critical pressure (kPa)

[[record]]
compound = "FC(F)C(F)C(F)(F)F (stereo not given)"
parameter = "Critical pressure"
readout_number = 3416

[[record]]
compound = "FC(F)C(F)(F)F"
parameter = "Critical pressure"
readout_number = 3617

[[record]]
compound = "COC(F)(F)C(F)(F)F"
parameter = "Critical pressure"
readout_number = 2885

[[record]]
compound = "FC(C(F)(F)F)C(F)(F)F"
parameter = "Critical pressure"
readout_number = 2930

[[record]]
compound = "FCC(F)(F)F"
parameter = "Critical pressure"
readout_number = 4053


* * *

# Critical density annotations
# particulars: Liquid
parameter: Critical density (kg/m3)

[[record]]
molecule = "FCC(F)(F)F [1,1,1,2-tetrafluoroethane]"
parameter = "Critical density"
readout_number = 508

[[record]]
molecule = "FC(F)C(F)C(F)(F)F (stereo not given) [1,1,1,2,3,3-hexafluoropropane]"
parameter = "Critical density"
readout_number = 562

[[record]]
molecule = "FC(F)C(F)(F)F [pentafluoroethane]"
parameter = "Critical density"
readout_number = 560

[[record]]
molecule = "FC(C(F)(F)F)C(F)(F)F [1,1,1,2,3,3,3-heptafluoropropane]"
parameter = "Critical density"
readout_number = 598

[[record]]
molecule = "COC(F)(F)C(F)(F)F [methyl pentafluoroethyl ether]"
parameter = "Critical density"
readout_number = 491

